From: ChEMBL document CHEMBL5303304

Listing of entries alongside the reported Growth Rate.
System: Fibroblast
Experiment: Incucyte cell viability with human fibroblast; also: unitless GR value; below 1 slowed growth and below 0 cell loss
Type: toxicity, cell-based
Settings: 18 h, 10 µM, compound concentration 10 uM, replicate number 2

- compound: "COc1ccc(CCCN2CCC(COC(c3ccccc3)c3ccccc3)CC2)cc1.Cl"
  Growth Rate: -0.39
- compound: "CC1CNCCc2c1nc1ccnn1c2N1CC(C(=O)N2CCC(C)(C)C2)C1 (stereo not given)"
  Growth Rate: 0.74
- compound: "Cc1n[nH]c2ncc(C(=O)N3CCC[C@H]3c3ccc(Cl)cc3)cc12"
  Growth Rate: 0.99
- compound: "NS(=O)(=O)c1ccc(Nc2nc(OCC3CCCCC3)c3nc[nH]c3n2)cc1"
  Growth Rate: 0.56
- compound: "O=C(NCCN1CCOCC1)c1ccc2nn(CCOc3ccc(Cl)cc3)cc2c1"
  Growth Rate: 0.98
- compound: "Cc1cc(SCc2sc(-c3ccc(C(F)(F)F)cc3)nc2C)ccc1OCC(=O)O"
  Growth Rate: 0.73
- compound: "CCc1nc(C2CCC2)n2nc(-c3ccccc3)[nH]c(=O)c12"
  Growth Rate: 0.5
- compound: "N[C@@H]1CCCN(c2c(/C=C3\\SC(=O)NC3=O)cccc2-c2ccccc2)C1"
  Growth Rate: 0.55
- compound: "Cc1c(CCC(=O)O)cccc1NC(=O)[C@@H](c1ccc(-c2cncc(Cl)c2)c(F)c1)C1CCCC1"
  Growth Rate: 0.9
- compound: "CCCCCN1C(=O)C2(COc3cc4c(cc32)OCO4)c2ccccc21 (stereo not given)"
  Growth Rate: 0.91

----------
Listing of entries alongside the reported Growth Rate.
Tested on: U2OS
Assay: Incucyte cell viability with U2OS; also: unitless GR value; below 1 slowed growth and below 0 cell loss
Type: toxicity, cell-based
Conditions: human, 18 h, 10 µM, compound concentration 10 uM, replicate number 1
endpoint: Growth Rate

- compound: "COc1ccc(CC[C@@H](OC(=O)[C@H]2CCCCN2C(=O)[C@@H](c2cc(OC)c(OC)c(OC)c2)C2CCCCC2)c2cccc(OCCN3CCOCC3)c2)cc1OC"
  endpoint: "Growth Rate"
  reported: 0.98
- compound: "Clc1ccccc1C(c1ccccc1)(c1ccccc1)n1cccn1"
  endpoint: "Growth Rate"
  reported: 1
- compound: "COCCN(C)c1ccc(NC(=O)/C=C(\\C)c2ccc3ccccc3c2)c(C(=O)O)c1"
  endpoint: "Growth Rate"
  reported: 0.88
- compound: "COc1ccc(CC(=O)NC(N/C(=N/C#N)Nc2cccc3ncccc23)C(C)(C)C)cc1OC (stereo not given)"
  endpoint: "Growth Rate"
  reported: 0.98
- compound: "Cc1cccc(CC(=O)N2CCc3c2ccc(-c2cn(C)c4ncnc(N)c24)c3F)n1"
  endpoint: "Growth Rate"
  reported: 0.31

----------
Test system: U2OS
Experiment: Incucyte cell viability with U2OS; also: unitless GR value; below 1 slowed growth and below 0 cell loss
Type: toxicity, cell-based
Conditions: human, 24 h, 10 µM, compound concentration 10 uM, replicate number 1
endpoint: Growth Rate

- compound: "CC[C@H](Nc1c(C#N)c(-c2ccc(-c3cccc(C)c3F)cc2)nc2cnccc12)C(=O)O [BAY-0361]"
  endpoint: "Growth Rate"
  reported: 0.91
- compound: "COc1ccc(Cl)cc1[C@]1(F)C(=O)Nc2cc(C(F)(F)F)ccc21 [FLINDOKALNER]"
  endpoint: "Growth Rate"
  reported: 0.83
- compound: "CCOC(=O)Nc1ccc2c(c1)N(C(=O)CN(CC)CC)c1ccccc1CC2"
  endpoint: "Growth Rate"
  reported: 0.89
- compound: "Cc1cc(C2CCCNC2)ccc1Nc1ncc(Br)c(NCc2cccc3c2C(C)(C)C(=O)N3)n1 (stereo not drawn)"
  endpoint: "Growth Rate"
  reported: 0.8
- compound: "CC(=O)NCC(=O)N1[C@@H]2CC[C@H]1c1ccc(Nc3ncc(C(F)(F)F)c(NC4CCC4)n3)cc12 [PF-03814735]"
  endpoint: "Growth Rate"
  reported: 0.02
- compound: "O=C(Nc1cc(C(F)(F)F)cc(C(F)(F)F)c1)c1cc(Cl)ccc1O [IMD-0354]"
  endpoint: "Growth Rate"
  reported: 0.71
- compound: "Cl.O=C1c2cccc3c2[C@H](CCC3)CN1[C@@H]1CN2CCC1CC2 [PALONOSETRON HYDROCHLORIDE]"
  endpoint: "Growth Rate"
  reported: 0.92
- compound: "[2H]C([2H])([2H])NC(=O)c1nnc(NC(=O)C2CC2)cc1Nc1cccc(-c2ncn(C)n2)c1OC [DEUCRAVACITINIB]"
  endpoint: "Growth Rate"
  reported: 0.97
